# test.details: MTT cytotoxicity assay on normal cells
# Assay type: cell-based
# details: human, WI38 normal fibroblast cells
IC50 at 3 days for assorted compounds
Please reply with the bare figure in µM and do not write the unit itself.

CCOC(=O)c1c(N)nc(N)c2c(=O)nc3scnn3c12 | 43.8
Cc1cc2nc3c(c(N)n2n1)c(=O)nc1scnn13 | 44.4
N#Cc1cn2ncsc2nc1=O | 7.82

Task item: Consider the compound N#CC1=C(c2ccccc2)OC(N)=C2C(=O)N=C3SC=NN3C12 (stereo not drawn) and give its measured IC50 at 3 days.
Reply: 48.2

Task item: Consider the compound O=c1[nH]cc(F)c(=O)[nH]1 [Compound 5-Fu, 5-Fluorouracil, reference compound] and give its measured IC50 at 3 days.
Reply: 10.3

Task item: Consider the compound Cc1n[nH]c2c1C1C(=C(N)O2)C(=O)N=C2SC=NN21 (stereo not drawn) [Compound 10a] and give its measured IC50 at 3 days.
Reply: 23.3

Task item: Consider the compound COc1ccc(N=Nc2c(N)nn3c(N)c4c(=O)nc5scnn5c4nc23)cc1 [Compound 16b] and give its measured IC50 at 3 days.
Reply: 62.3

Task item: Consider the compound `N#Cc1c(N)nc(N)c2c(=O)nc3scnn3c12` and give its measured IC50 at 3 days.
Reply: 14.1

Task item: Consider the compound Cc1nn(-c2ccccc2)c2c1C1C(=C(N)O2)C(=O)N=C2SC=NN21 (stereo not drawn) [Compound 10b] and give its measured IC50 at 3 days.
Reply: 25.4

// data source = paper PMC8333053
